Data origin, for the record: PubChem BioAssay AID2060494

Tested on: 435261-313-R-J1-PDC complex spheroid viability;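 note: spheroids exposed to the agents for seven days before readout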
measurement-notes: Anticancer human tumor 435261-313-R-J1-PDC patient-derived colon adenocarcinoma cell line growth inhibition [GQUAD]
test-conditions: curve of first compound; second compound 0.0316 µM
experimental-readout: pIC50
Just so you know, pIC50 here is -log10 of the concentration in molar units; reply with that number alone.

CCc1c2c(nc3ccc(O)cc13)-c1cc3c(c(=O)n1C2)COC(=O)[C@]3(O)CC + Cc1cnc(CNC(=O)c2c(=O)c3ccc(N4CCCN(C)CC4)nc3n3c2sc2ccccc23)cn1: 7.27

Next up:
// pIC50 value for CC1COCCN1c1cc(C2(S(C)(=N)=O)CC2)nc(-c2ccnc3[nH]ccc23)n1 (stereo not given) + Cc1cnc(CNC(=O)c2c(=O)c3ccc(N4CCCN(C)CC4)nc3n3c2sc2ccccc23)cn1 : 5.42
